This listing pairs compounds with measured GI50.
- experiment summary: Growth inhibition of human SF295 cells
- Assay type: cell-based, SF-295
- assay setup: read-out: ED50 (the source's name)
Return type: number; implicit unit µg/mL.

O=C1NCCc2cc(Br)c(O)c(c2)Oc2ccc(cc2Br)[C@H](O)CNC(=O)/C(=N/O)Cc2cc(Br)c(O)c(c2)Oc2ccc(cc2Br)C/C1=N\O ... 3.2

Turning now to a further compound:
Look up GI50: O=C1NCCc2cc(Br)c(O)c(c2)Oc2c(Br)cc(cc2Br)[C@H](O)CNC(=O)/C(=N/O)Cc2cc(Br)c(O)c(c2)Oc2ccc(cc2Br)C/C1=N\O
2.4
